meta.source: patent US20110218217A1

- System: reuptake of noradrenaline (NA) in synaptosomes (Rattus norvegicus, UniProt Q63380)
- Construct: in synaptosomes as described in WO 97/16451 (NeuroSearch A/S); from tissue
- Sequence (Q63380 1-617): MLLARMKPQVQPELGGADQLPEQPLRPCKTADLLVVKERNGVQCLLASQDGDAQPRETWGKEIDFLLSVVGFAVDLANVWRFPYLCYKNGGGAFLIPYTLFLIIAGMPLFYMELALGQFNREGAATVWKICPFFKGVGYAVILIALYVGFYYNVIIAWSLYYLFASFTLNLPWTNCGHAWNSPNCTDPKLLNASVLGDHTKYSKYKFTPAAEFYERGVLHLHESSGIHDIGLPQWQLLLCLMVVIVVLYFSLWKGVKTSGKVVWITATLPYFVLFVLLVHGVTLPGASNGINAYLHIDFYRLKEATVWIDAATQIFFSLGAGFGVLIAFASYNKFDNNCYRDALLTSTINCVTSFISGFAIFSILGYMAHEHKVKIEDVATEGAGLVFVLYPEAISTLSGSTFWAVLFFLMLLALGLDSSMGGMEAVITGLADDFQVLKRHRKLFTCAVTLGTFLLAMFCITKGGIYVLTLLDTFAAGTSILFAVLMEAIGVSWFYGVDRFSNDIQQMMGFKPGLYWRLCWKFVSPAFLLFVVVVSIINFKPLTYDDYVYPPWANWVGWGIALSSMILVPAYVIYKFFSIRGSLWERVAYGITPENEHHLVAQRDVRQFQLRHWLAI
- Assay details: Inhibition of NA reuptake in synaptosomes
- Assay type: biochemical
- Run parameters: 3H-NA, synaptosomes; read-out: NA-uptake IC50
pIC50: −log10 of the molar value.
Would you please tag the item TRUE when its pIC50 is 8 or above, and FALSE when it is below?

Could you please find out whether `CCN(C(=O)CCC1CCN(C)CC1)c1ccc(Br)c(Cl)c1` has pIC50 that meets 8 or exceeds it?
TRUE

Item `CN1CCC(CCC(=O)N(C)c2ccc(Cl)c(Cl)c2)CC1` with pIC50 of 8 or above?
FALSE

Quick check: does `CN(C(=O)CCC1CCNCC1)c1ccc(Cl)c(Cl)c1` have pIC50 greater than or equal to 8?
FALSE

Does the compound `CCN(C(=O)CCC1CCNCC1)c1ccc(Br)c(Cl)c1` have recorded pIC50 that is 8 or more?
TRUE

Quick check, pIC50 >= 8? `CCCN(C(=O)CCC1CCNCC1)c1ccc(Cl)c(Cl)c1`
TRUE

----------
- System: reuptake of dopamine (DA) in synaptosomes (Rattus norvegicus, UniProt P23977)
- Construct: in synaptosomes as described in WO 97/16451 (NeuroSearch A/S); from tissue
- Sequence (P23977 whole entry): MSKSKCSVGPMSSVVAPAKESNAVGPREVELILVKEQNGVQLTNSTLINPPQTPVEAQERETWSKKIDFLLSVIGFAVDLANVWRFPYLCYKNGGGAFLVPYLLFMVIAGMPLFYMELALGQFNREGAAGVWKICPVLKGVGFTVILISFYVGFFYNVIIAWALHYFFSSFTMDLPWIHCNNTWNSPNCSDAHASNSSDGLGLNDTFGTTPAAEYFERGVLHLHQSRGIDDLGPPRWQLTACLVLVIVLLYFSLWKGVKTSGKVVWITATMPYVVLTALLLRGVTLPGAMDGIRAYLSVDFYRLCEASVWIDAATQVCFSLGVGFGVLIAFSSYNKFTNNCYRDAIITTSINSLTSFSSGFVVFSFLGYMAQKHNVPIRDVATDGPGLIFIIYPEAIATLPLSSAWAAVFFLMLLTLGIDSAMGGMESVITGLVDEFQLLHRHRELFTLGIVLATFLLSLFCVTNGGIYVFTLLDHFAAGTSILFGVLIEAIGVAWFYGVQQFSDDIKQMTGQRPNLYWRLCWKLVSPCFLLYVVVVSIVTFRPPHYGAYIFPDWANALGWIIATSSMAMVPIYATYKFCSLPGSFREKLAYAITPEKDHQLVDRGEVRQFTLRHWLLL
- Assay details: Inhibition of DA reuptake in synaptosomes
- Assay type: biochemical
Measure: pIC50
Scale explanation: pIC50 corresponds to minus log10 of a concentration expressed in moles per litre.

For the compound shown here, `CCCN(C(=O)CCC1CCN(C)CC1)c1ccc(Cl)c(Cl)c1` , give the reported pIC50.
8.00

----------
- System: reuptake of dopamine (DA) in synaptosomes (Rattus norvegicus, UniProt P23977)
- Construct: in synaptosomes as described in WO 97/16451 (NeuroSearch A/S); from tissue
- Assay details: Inhibition of DA reuptake in synaptosomes
- Type: biochemical
- Run parameters: 3H-DA, synaptosomes; read-out: DA-uptake IC50
pIC50: −log10 of the molar value.
Short version: pIC50 at least 8 is YES, less is NO.

API: above_or_equal(metric=pIC50, cutoff=8) for item `CN(C(=O)CCC1CCNCC1)c1ccc(Cl)c(Cl)c1`
NO

Could you verify whether the entry `CCN(C(=O)CCC1CCNCC1)c1ccc(Br)c(Cl)c1` shows pIC50 of no less than 8?
YES

Kindly determine if pIC50 recorded for `CN1CCC(CCC(=O)N(C)c2ccc(Cl)c(Cl)c2)CC1` is above or exactly 8.
NO

----------
For each of the molecules below, state its pIC50.
- System: reuptake of serotonine (5-HT) in synaptosomes (Rattus norvegicus, UniProt P31652)
- Construct: in synaptosomes as described in WO 97/16451 (NeuroSearch A/S)
- Sequence (P31652 whole entry): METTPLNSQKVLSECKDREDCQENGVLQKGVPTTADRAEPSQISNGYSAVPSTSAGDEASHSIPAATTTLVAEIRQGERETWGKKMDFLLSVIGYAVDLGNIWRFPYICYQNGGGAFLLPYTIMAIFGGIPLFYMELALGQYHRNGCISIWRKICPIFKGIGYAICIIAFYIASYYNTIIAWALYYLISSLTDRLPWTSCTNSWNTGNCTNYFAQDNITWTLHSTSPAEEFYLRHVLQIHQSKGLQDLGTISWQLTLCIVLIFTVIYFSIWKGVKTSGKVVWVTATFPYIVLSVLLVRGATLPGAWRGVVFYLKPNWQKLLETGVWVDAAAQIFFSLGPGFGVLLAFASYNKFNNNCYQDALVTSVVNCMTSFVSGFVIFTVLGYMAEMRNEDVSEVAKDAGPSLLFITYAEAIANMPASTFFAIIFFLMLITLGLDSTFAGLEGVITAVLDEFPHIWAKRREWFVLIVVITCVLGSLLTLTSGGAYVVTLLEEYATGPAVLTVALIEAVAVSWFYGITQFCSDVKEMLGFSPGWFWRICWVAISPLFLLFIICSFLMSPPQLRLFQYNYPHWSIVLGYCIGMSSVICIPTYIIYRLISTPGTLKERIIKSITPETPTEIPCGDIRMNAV
- Assay details: Inhibition of 5-HT reuptake in synaptosomes
- Run parameters: 3H-5-HT, read-out: 5-HT-uptake IC50
pIC50: −log10 of the molar value.

Returns the measured pIC50 for the input molecule. Input: `CCN(C(=O)CCC1CCN(C)CC1)c1ccc(Cl)c(Cl)c1`
< 6.00

I have this molecule here, `CCCN(C(=O)CCC1CCN(C)CC1)c1ccc(Cl)c(Cl)c1` , and I need its recorded pIC50.
6.09

For the molecule shown here, `CN1CCC(CCC(=O)N(C)c2ccc(Cl)c(Cl)c2)CC1` , give the reported pIC50.
< 6.00

# get_value(readout='pIC50', item= `CCN(C(=O)CCC1CCNCC1)c1ccc(Cl)c(Cl)c1` )
5.68

What value of pIC50 has been recorded for this entry: `CN(C(=O)CCC1CCNCC1)c1ccc(Cl)c(Cl)c1`
< 6.00

I am curious: what pIC50 value has been reported for `CCN(C(=O)CCC1CCN(C)CC1)c1ccc(Br)c(Cl)c1` ?
< 6.00

Entry `CCCN(C(=O)CCC1CCNCC1)c1ccc(Cl)c(Cl)c1` : reported pIC50 = ?
5.85

Which pIC50 value belongs to `CCN(C(=O)CCC1CCNCC1)c1ccc(Br)c(Cl)c1` ?
< 6.00
